# Assayed system: Avi-KRAS G12V (1-169) GppNHp/RAF1 RBD-3xFLAG (52-151) (Homo sapiens, UniProt P01116, G12V)
# Construct: Avi-KRAS G12V (1-169)
# Sequence (P01116 1-169 isoform P01116-2 G12V): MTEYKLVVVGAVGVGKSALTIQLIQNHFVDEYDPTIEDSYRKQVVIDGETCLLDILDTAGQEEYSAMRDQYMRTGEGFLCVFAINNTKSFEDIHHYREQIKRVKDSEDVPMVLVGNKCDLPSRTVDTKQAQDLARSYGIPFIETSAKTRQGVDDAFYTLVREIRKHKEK
# Experiment summary: Raf1-KRAS G12V-GppNHP disruption HTRF assay (Biological Example 1)
# Format: binding
# Conditions used: KRAS G12V-GppNHp/RAF1 RBD HTRF
pIC50: −log10 of the molar value.
Readout label: pIC50

Recorded results for 3 molecules are shown here.
CC(=O)N1C[C@H](O)[C@@H](N(C)c2nc(OC[C@@]34CCCN3C[C@H](F)C4)nc3c(F)c(-c4ccc(F)c5sc(N)c(C#N)c45)c(C(F)(F)F)cc23)C1 [Compound 347]; 6.00 to 7.00
CN(c1nc(OC[C@@]23CCCN2C[C@H](F)C3)nc2c(F)c(-c3ccc(F)c4sc(N)c(C#N)c34)c(C(F)(F)F)cc12)[C@H]1CCCOC1 [Compound 280]; 6.00 to 7.00
CCC(=O)N1CC[C@H](N(CC)c2nc(OC[C@@]34CCCN3C[C@H](F)C4)nc3c(F)c(-c4ccc(F)c5sc(N)c(C#N)c45)c(C(F)(F)F)cc23)C1 [Compound 349]; 6.00 to 7.00

Exercise: Item under review: CCC(=O)N1CC[C@@](C)(N(C)c2nc(OC[C@@]34CCCN3C[C@H](F)C4)nc3c(F)c(-c4ccc(F)c5sc(N)c(C#N)c45)c(C(F)(F)F)cc23)[C@H]1C [Compound 343] . Reported pIC50?
Key: 5.00 to 6.00

Exercise: Given N#Cc1nnn2c1CN(c1nc(OC[C@@]34CCCN3C[C@H](F)C4)nc3c(F)c(-c4ccc(F)c5sc(N)c(C#N)c45)c(C(F)(F)F)cc13)CC2 [Compound 486] , state its recorded pIC50.
Key: 6.00 to 7.00

Exercise: For the molecule shown here, CCC(=O)N1CC[C@@H](N(CC)c2nc(OC[C@@]34CCCN3C[C@H](F)C4)nc3c(F)c(-c4ccc(F)c5sc(N)c(C#N)c45)c(C(F)(F)F)cc23)[C@H]1C [Compound 405] , give the reported pIC50.
Key: 6.00 to 7.00

Exercise: Data request, read-out pIC50, for CC(C)C(=O)N1C[C@@H](N(C)c2nc(OC[C@@]34CCCN3C[C@H](F)C4)nc3c(F)c(-c4ccc(F)c5sc(N)c(C#N)c45)c(C(F)(F)F)cc23)C[C@@H]1C [Compound 436]
Key: 5.00 to 6.00

Exercise: # query: pIC50 of entry CCC(=O)N1CC[C@@H](N(CC)c2nc(OC[C@@]34CCCN3C[C@H](F)C4)nc3c(F)c(-c4ccc(F)c5sc(N)c(C#N)c45)c(Cl)cc23)[C@@H]1C [Compound 417]
Key: 5.00 to 6.00

Exercise: Which pIC50 reading was recorded for the molecule CCN(c1nc(OC[C@@]23CCCN2C[C@H](F)C3)nc2c(F)c(-c3ccc(F)c4sc(N)c(C#N)c34)c(C(F)(F)F)cc12)[C@@H]1CN(C(=O)C(C)C)C[C@@H]1F [Compound 475] ?
Key: 6.00 to 7.00

Exercise: // pIC50 lookup, key: CCN(c1nc(OC[C@@]23CCCN2C[C@H](F)C3)nc2c(F)c(-c3ccc(F)c4sc(N)c(C#N)c34)c(C(F)(F)F)cc12)[C@H]1CC(=O)N(C2CC2)C1 [Compound 496]
Key: 5.00 to 6.00

Exercise: Name the recorded pIC50 for C[C@H]1[C@H](O)CCCN1c1nc(OC[C@@]23CCCN2C[C@H](F)C3)nc2c(F)c(-c3ccc(F)c4sc(N)c(C#N)c34)c(C(F)(F)F)cc12 [Compound 473] .
Key: 6.00 to 7.00
